FYI, the data here is from PubChem BioAssay (NCI).

tested on: NCI-H226 lung; test: NCI-60 one-dose screen, 48 h (100 = growth as untreated, 0 = no growth, -100 = all killed); conditions: 10 µM unless noted
Compounds without any hit were thinned out: in the full panel of roughly 83,000, 20% have a hit. Calls of active or inactive are those of the source. Rule for the calls: active = growth percent below 10; inactive = the rest.
Measured Metric: growth

Guide cases for growth, answers given:
COC(=O)c1cc2cc(-c3ccc(OC)cc3)cnc2[nH]1: 45.1% (inactive)
CCOC(=O)NNC(=S)Nc1ccccc1: 103% (inactive)
CC(C)(C)OC(=O)NC(CSCc1ccccc1)C(=O)ON1C(=O)CCC1=O (stereo not given): 110% (inactive)
O=C(NCc1cn(Cc2cccc(Oc3ccccc3)c2)nn1)c1cccnc1Nc1ccc(F)cc1: 88.5% (inactive)
O=C(/C=C/c1c[nH]c2ccccc12)c1ccc(O)c(CN2CCN(c3ccc(F)cc3)CC2)c1: 100% (inactive)

Field request: growth | item: C=C[C@@H]1C[C@@H]2Cc3cc(F)ccc3N1O2 120% (inactive)

Field request: growth | item: CCN(CC)CCOc1ccc(/C(=C(/C)c2ccccc2)c2ccc(OC(C)=O)cc2)cc1 105% (inactive)

Field request: growth | item: FC(F)(F)c1ccccc1-c1cn2c(ccc3ccccc32)n1 77.5% (inactive)

Field request: growth | item: c1cc2[nH]ncc2cc1-c1nc2ccc3[nH]ncc3c2c2c1CCC2 42.5% (inactive)

Field request: growth | item: COc1cc(NC(=O)SC2=NCCS2)cc(OC)c1 98.7% (inactive)

Field request: growth | item: N=c1ccc2nc3ccc(N)cc3sc-2c1 87.8% (inactive)

Field request: growth | item: CCOC(=O)c1ccc2c(c1)nc(-c1ccc(OCc3ccccc3)c(OC)c1)n2-c1cc(C(C)(C)C)[nH]n1 91.6% (inactive)

Field request: growth | item: COc1cc([N+](=O)[O-])c2ncccc2c1O 5.16% (active)
